Test system: RXRa homodimer (NR concentration 180 nM)
Assay: PBM binding z-score (relative to random genomic background probes); higher = stronger binding; sequences stand for … in GC…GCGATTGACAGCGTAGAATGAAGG
Please provide measured PBM binding z-score for the entries that follow.
Answer as a number with no unit attached.

Please give the documented PBM binding z-score of "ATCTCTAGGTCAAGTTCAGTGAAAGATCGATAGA"
3.73

Please give the documented PBM binding z-score of "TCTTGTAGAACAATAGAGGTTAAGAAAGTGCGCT"
1.42

Please give the documented PBM binding z-score of "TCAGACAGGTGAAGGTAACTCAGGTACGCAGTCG"
0.995

Please give the documented PBM binding z-score of "ACAGACAGGTGATGAAGGTAAGTCAGGCTATCAT"
0.248

----------
System: PPARg DBDmut IVT, anti-PPARg (DBD mutation: PPARg1 K132A/R137A, NR concentration 270 nM)
Experiment: PBM binding z-score (relative to random genomic background probes); higher = stronger binding; sequences stand for … in GC…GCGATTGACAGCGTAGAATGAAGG
observation type: PBM binding z-score
Answer as a number with no unit attached.

Please give the documented PBM binding z-score of "CCTTACGGTTCACTCCAGGTTATAGCATCGGAGT"
1.01

Please give the documented PBM binding z-score of "ATATGTAGGTTACATCCGGGTTATTCAGGCTATG"
2.37

Please give the documented PBM binding z-score of "GCTAGCAGGCTATTTGGGTCACTCAATGACGGGC"
-0.897

Please give the documented PBM binding z-score of "TCTAGTTGGTCAAAGGTCACACAATCGAAATGCG"
2.13

Please give the documented PBM binding z-score of "CGTCCAAGGTCAAAGGTCAGTGAGGAGATGACGG"
-0.522

Please give the documented PBM binding z-score of "GATACTGGGTCAAGGCCAGAGTACGCGTATTGAT"
1.07

Please give the documented PBM binding z-score of "CTAACTAGGTCAAGAGGTCAAAGTCCGCTTCCCG"
2.76

Please give the documented PBM binding z-score of "TGTCAAAGTTCAAAGGTAACGTCAGTATCCACAC"
1.89

Please give the documented PBM binding z-score of "TCTATTAGTTGAAGGGCAATCGACGAGTCCGTTT"
-0.223

Please give the documented PBM binding z-score of "TGTCAAAGTCCAAAGGTAACGTAAGTATCCACAC"
1.16

Please give the documented PBM binding z-score of "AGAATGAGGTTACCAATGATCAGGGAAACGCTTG"
0.416

Please give the documented PBM binding z-score of "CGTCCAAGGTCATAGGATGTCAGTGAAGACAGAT"
0.513

Please give the documented PBM binding z-score of "AGTCAAAGTTCACTAGGTAACGTTAGATTCAGCT"
1.15

Please give the documented PBM binding z-score of "CGTTACGGGTCAAGGTTATAGCACGGGTGGTACG"
-0.183

----------
Tested on: PPARg:RXRa 90nM:30nM, anti-RXR (NR concentration 90 nM, RXRa partner concentration 30 nM)
Assay: PBM binding z-score (relative to random genomic background probes); higher = stronger binding; sequences stand for … in GC…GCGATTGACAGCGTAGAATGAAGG
observation type: PBM binding z-score
Answer as a number with no unit attached.

Find the measured PBM binding z-score of "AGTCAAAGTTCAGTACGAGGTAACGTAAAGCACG" with PPARg:RXRa 90nM:30nM, anti-RXR (NR concentration 90 nM, RXRa partner concentration 30 nM) as test system.
2.93

Find the measured PBM binding z-score of "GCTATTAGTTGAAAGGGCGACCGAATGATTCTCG" with PPARg:RXRa 90nM:30nM, anti-RXR (NR concentration 90 nM, RXRa partner concentration 30 nM) as test system.
3.05

Find the measured PBM binding z-score of "TCAGACAAGTGAAGGTAACTCAGGTACGCAGTCG" with PPARg:RXRa 90nM:30nM, anti-RXR (NR concentration 90 nM, RXRa partner concentration 30 nM) as test system.
2.94

----------
Test system: LXRa:RXRa (NR concentration 270 nM, RXRa partner concentration 90 nM)
Test: PBM binding z-score (relative to random genomic background probes); higher = stronger binding; sequences stand for … in GC…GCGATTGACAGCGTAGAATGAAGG
Answer NO if PBM binding z-score is under 2, and YES if it is 2 or more.

Check the entry "GCTAGCAGGCCATTTGGGTCACTCCATGACGGGC" : does PBM binding z-score equal or exceed 2?
NO

Check the entry "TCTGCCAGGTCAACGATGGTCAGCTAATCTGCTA" : does PBM binding z-score equal or exceed 2?
YES

Check the entry "TCTAGTTGGTCACGGAGGTCACGCACGACGGGTA" : does PBM binding z-score equal or exceed 2?
YES

Check the entry "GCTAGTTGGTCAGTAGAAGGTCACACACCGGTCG" : does PBM binding z-score equal or exceed 2?
YES

Check the entry "GCAGACAGGAGAAACGCAGGTAACTCAGGGTGGC" : does PBM binding z-score equal or exceed 2?
NO

Check the entry "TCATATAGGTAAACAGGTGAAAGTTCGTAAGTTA" : does PBM binding z-score equal or exceed 2?
NO

Check the entry "ACTCGGAGGACAACGGTCAGAGCTACGCCAGTGA" : does PBM binding z-score equal or exceed 2?
NO

Check the entry "TCGAGAAGGTTAGTCGGGGCATTCAGCCAACATA" : does PBM binding z-score equal or exceed 2?
NO

Check the entry "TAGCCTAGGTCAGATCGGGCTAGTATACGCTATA" : does PBM binding z-score equal or exceed 2?
NO

Check the entry "ATCGAAAGGTCGTGAGGTGAGAATACAGAAAGGC" : does PBM binding z-score equal or exceed 2?
YES

----------
Test system: RARg:RXRa (NR concentration 270 nM, RXRa partner concentration 90 nM)
Experiment: PBM binding z-score (relative to random genomic background probes); higher = stronger binding; sequences stand for … in GC…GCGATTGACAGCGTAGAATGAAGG
observation type: PBM binding z-score
Answer as a number with no unit attached.

Please give the documented PBM binding z-score of "CCTAGTTGGTCCAGGTCACACACGCTATAGGTAC"
2.68

Please give the documented PBM binding z-score of "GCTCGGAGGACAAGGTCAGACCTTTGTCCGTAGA"
3.68

Please give the documented PBM binding z-score of "CTTCCAAGGTCATAGGAGGTCAGTGAAGACAGAT"
7

Please give the documented PBM binding z-score of "GCTAACGGGTCAAAGGTTATAGCATGAATAGAAT"
6.57

Please give the documented PBM binding z-score of "TGAATGAGGTAATAAGATCAGGGAACGTTGCAAA"
0.204

Please give the documented PBM binding z-score of "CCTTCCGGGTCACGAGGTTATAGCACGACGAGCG"
6.06

Please give the documented PBM binding z-score of "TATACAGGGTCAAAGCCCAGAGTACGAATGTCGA"
5.26

Please give the documented PBM binding z-score of "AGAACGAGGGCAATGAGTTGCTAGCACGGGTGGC"
0.847

Please give the documented PBM binding z-score of "AGACCAAGGTGATCGTGAGGTCGTTGATACTAAC"
1.99

Please give the documented PBM binding z-score of "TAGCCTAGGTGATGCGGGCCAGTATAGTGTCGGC"
-0.331

Please give the documented PBM binding z-score of "AGAACGAGGGCACGCTGAGGTGATAGCAGAGTAG"
2.8

Please give the documented PBM binding z-score of "ATCTCTAGGTAAAGATAGTTCAGTGTATGCAAAT"
0.725

Please give the documented PBM binding z-score of "GCGACTGGGGCATAGCAGGTTACCATAAGGTTGG"
0.402

Please give the documented PBM binding z-score of "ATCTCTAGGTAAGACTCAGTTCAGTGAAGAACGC"
0.0914

Please give the documented PBM binding z-score of "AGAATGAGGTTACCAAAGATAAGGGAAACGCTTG"
1.85

Please give the documented PBM binding z-score of "GGAACGAGGGCAAAGTTGACAGCATCTGTCGACG"
2.77

Please give the documented PBM binding z-score of "TAGCCTAGGTCAATCAGGGGCCAGTATAGAAAGC"
5.75

Please give the documented PBM binding z-score of "ATTGAAAGGTCGAAGGTGAGTATACCCACCCGAA"
4.17

Please give the documented PBM binding z-score of "CAAACTAGGTCGAGAGGTCAAAGTCCGCTTCCCG"
5.98

Please give the documented PBM binding z-score of "GCTATTAGTTAAAAGGGCAACCGAATGATTCTCG"
1.08

Please give the documented PBM binding z-score of "GCTGCTAGGTCAGGTCGGTCAGCTAACGGGTACG"
3.03

Please give the documented PBM binding z-score of "GCGACTGGGGCATCAGCAGGTCACCATAACTTAA"
3.79

Please give the documented PBM binding z-score of "CCTCGGAGGGCAGAAGGTCAGAGCTGTCCGCTTT"
4.71

Please give the documented PBM binding z-score of "CCTACTGGGCCTTTCAGAGGTCATTGATCATATG"
3.43

Please give the documented PBM binding z-score of "AATACAGGGTCATCGTAGGCCAGAATACGCACAG"
5.69

Please give the documented PBM binding z-score of "CCGAGTAGGTTATGGGCCATTCAGGCAACGGTGA"
0.305

Please give the documented PBM binding z-score of "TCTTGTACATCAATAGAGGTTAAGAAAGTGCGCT"
0.893

Please give the documented PBM binding z-score of "CCGCGGAGGACAACAGGAGGTCAGAGCTGCCAGA"
3.63

Please give the documented PBM binding z-score of "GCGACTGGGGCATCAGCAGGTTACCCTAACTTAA"
0.748

Please give the documented PBM binding z-score of "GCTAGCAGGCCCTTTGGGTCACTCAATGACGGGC"
0.49

Please give the documented PBM binding z-score of "TGAATGAGGTTATAAGATCAGAGAACGTTGCAAA"
1.39
